Test system: MCF7 breast
Test: NCI tumour cell line growth inhibition, 48 h; in the data active = GI50 below about 0.43 µM; inactive = the rest
Parameter call: string, one of label 1 = active, label 0 = inactive

Examples with answers:
Molecule	Target of assay	Label value
CNNC(=N\S(=O)(=O)c1cc(C(=O)Nc2ccc(Cl)cc2)c(Cl)cc1SCc1ccccc1)/N=C/c1ccc([N+](=O)[O-])s1	MCF7 breast	label 0
ICCC(c1ccccc1)(c1ccccc1)c1ccccc1	MCF7 breast	label 0
COc1cccc(-n2ncc3c(N/N=C/c4ccc(S(C)(=O)=O)cc4)ncnc32)c1	MCF7 breast	label 0
ClC1=NC(Cl)C(Cl)=N/C1=N\c1ncn[nH]1 (configuration not stated)	MCF7 breast	label 0
CC1(C)N=C(N)N=C(N)N1c1cccc(CCCCc2ccccc2)c1	MCF7 breast	label 1
CN(C)C(=O)c1cc2cnc(Nc3ccc(-c4csc5c(=O)cc(N6CCNCC6)oc45)cc3)nc2n1C1CCCC1	MCF7 breast	label 1

I'd appreciate the recorded outcome for O=Cc1ccc(Oc2c3ccccc3nc3occc23)cc1 from this test. label 0
